# assay.target: Hyaluronan mediated motility receptor (Homo sapiens)
# assay: Inhibition of C-terminal His-tagged 7 kDa RHAMM (unknown origin) binding to HA assessed as association constant at 500 nM after 240 secs by SPR method
outcome.measure: K (×10⁴ /M.s)

// below: answered substances
> print(dat)
            substance  outcome.measure  val
1  H-GEFEEEAEEEVA-NH2                K    1
2  H-SVEAEAEEGEEY-NH2                K  2.3
3  H-FTEAESNMNDLV-NH2                K  4.9

a = H-VEGEGEEEGEEY-NH2
b = H-EAFEDEEEEIDG-NH2
c = H-EEDFGEEAEEEA-NH2
Challenge: Please put the entries in order of rising K. Note for the reader: the ranking is given by listing the labels in the order requested.
Response given: b, c, a
(b: 0.9 ×10⁴ /M.s, c: 3 ×10⁴ /M.s, a: 5.8 ×10⁴ /M.s)

meta.source: ChEMBL document CHEMBL4152371
